The values you see were collected from PubChem BioAssay AID2465.

test: A1 inhibitors via caspase activation, primary screen, cell-based, luminescence, HTS, two replicates (AID 2465); settings: MEF A1-2A-BIM cells, caspase-Glo luminescence, 3 h; hits give high values; percent of clofoctol response, DMSO zero; concentration not given here
In all, about 24,000 compounds went through this assay and fewer than 10 were called active. The list is a sample of the results.
// reported caspase activation per item
measurement_label: caspase activation (%)

- sample_smiles: "COC(=O)CCCCCCC(=O)N/N=C/c1ccc2ccccc2c1O"
  endpoint_value: -1.41
- sample_smiles: "C[C@@H]1CN([C@H](C)CO)C(=O)c2cccc(NC(=O)Nc3ccccc3)c2O[C@H]1CN(C)S(C)(=O)=O"
  endpoint_value: -0.29
- sample_smiles: "C[C@@H]1CCCCO[C@@H](CN(C)CC2CCCCC2)[C@H](C)CN([C@H](C)CO)C(=O)c2cc(NC(=O)C3CCCCC3)ccc2O1"
  endpoint_value: 0.00789
- sample_smiles: "C[C@H]1CN([C@@H](C)CO)C(=O)c2cc(N(C)C)ccc2O[C@@H]1CN(C)S(=O)(=O)c1ccc(Cl)cc1"
  endpoint_value: -0.761

---

assay: A1 inhibitors via caspase activation, primary screen, cell-based, luminescence, HTS, two replicates (AID 2465); details: MEF A1-2A-BIM cells, caspase-Glo luminescence, 3 h; hits give high values; percent of clofoctol response, DMSO zero; concentration not given here
Screen size: about 24,000 compounds; fewer than 10 were called active. These entries were drawn from the full list.
measurement_label: caspase activation (%)

- sample_smiles: "C[C@@H]1CCCCO[C@@H](CN(C)Cc2ccncc2)[C@H](C)CN([C@H](C)CO)C(=O)c2cc(NC(=O)NC3CCCCC3)ccc2O1"
  result_unit: "%"
  endpoint_value: 0.887
- sample_smiles: "C[C@H](CO)N1C[C@H](C)[C@H](CN(C)Cc2ccccc2)OCCCC[C@H](C)Oc2ccc(NC(=O)Cc3ccccc3)cc2C1=O"
  result_unit: "%"
  endpoint_value: -0.193
- sample_smiles: "COC(=O)CCCCCCC(=O)N/N=C/c1cccs1"
  result_unit: "%"
  endpoint_value: 0.382
- sample_smiles: "CC(C)NC(=O)Nc1ccc2c(c1)C(=O)N([C@H](C)CO)C[C@@H](C)[C@@H](CN(C)Cc1ccncc1)O2"
  result_unit: "%"
  endpoint_value: 1.1
- sample_smiles: "C[C@@H]1CN([C@@H](C)CO)C(=O)c2cccc(NS(=O)(=O)c3ccccc3)c2O[C@@H]1CN(C)S(=O)(=O)c1ccc(F)cc1"
  result_unit: "%"
  endpoint_value: 0.0248
- sample_smiles: "C[C@@H]1CCCCO[C@H](CN(C)C(=O)Nc2cccc3ccccc23)[C@H](C)CN([C@@H](C)CO)C(=O)c2cc(NC(=O)CCCN(C)C)ccc2O1"
  result_unit: "%"
  endpoint_value: -0.756
- sample_smiles: "C[C@H](CO)N1C[C@H](C)[C@H](CN(C)C(=O)c2ccccc2)OCCCC[C@H](C)Oc2ccc(N(C)C)cc2C1=O"
  result_unit: "%"
  endpoint_value: -1.45
- sample_smiles: "C[C@@H]1CN([C@@H](C)CO)C(=O)c2cc(NC(=O)Cc3ccccc3)ccc2O[C@@H](C)CCCCO[C@H]1CN(C)C(=O)Cc1ccccc1"
  result_unit: "%"
  endpoint_value: 1.05
- sample_smiles: "COc1ccc(S(=O)(=O)Nc2ccc3c(c2)C(=O)N([C@H](C)CO)C[C@@H](C)[C@@H](CN(C)CC2CCCCC2)O3)cc1"
  result_unit: "%"
  endpoint_value: -0.24
- sample_smiles: "COc1ccc(CN(C)C[C@H]2OCCCC[C@H](C)Oc3ccc(NC(=O)c4ccccc4)cc3C(=O)N([C@@H](C)CO)C[C@@H]2C)cc1"
  result_unit: "%"
  endpoint_value: 2.67
- sample_smiles: "COc1ccc(S(=O)(=O)Nc2ccc3c(c2)C(=O)N([C@@H](C)CO)C[C@@H](C)[C@H](CN(C)C(=O)Nc2ccc(C(F)(F)F)cc2)OCCCC[C@@H](C)O3)cc1"
  result_unit: "%"
  endpoint_value: -0.653
- sample_smiles: "C[C@@H]1CN([C@@H](C)CO)C(=O)CCCn2nncc2CO[C@H]1CN(C)C(=O)CCCN(C)C"
  result_unit: "%"
  endpoint_value: -0.0755
- sample_smiles: "C[C@@H]1CCCCO[C@H](CN(C)C(=O)Nc2ccc(C(F)(F)F)cc2)[C@@H](C)CN([C@@H](C)CO)C(=O)c2cc(NS(=O)(=O)c3cccs3)ccc2O1"
  result_unit: "%"
  endpoint_value: -0.547
- sample_smiles: "C[C@H]1CCCCO[C@H](CN(C)S(C)(=O)=O)[C@@H](C)CN([C@@H](C)CO)C(=O)c2cc(NC(=O)C3CCCCC3)ccc2O1"
  result_unit: "%"
  endpoint_value: -0.127
- sample_smiles: "C[C@H]1CN([C@@H](C)CO)C(=O)Cc2cc(NC(=O)CCCCCC(=O)Nc3ccccc3N)ccc2O[C@@H]1CN(C)Cc1ccncc1"
  result_unit: "%"
  endpoint_value: -0.722
- sample_smiles: "C[C@@H]1CN([C@H](C)CO)C(=O)c2cc(NC(=O)Nc3ccc(F)cc3)ccc2O[C@@H]1CN(C)Cc1ccc(Cl)c(Cl)c1"
  result_unit: "%"
  endpoint_value: 0.0143
- sample_smiles: "COc1ccc(NC(=O)Nc2ccc3c(c2)C(=O)N([C@@H](C)CO)C[C@H](C)[C@@H](CN(C)C(=O)Nc2cccc4ccccc24)OCCCC[C@@H](C)O3)cc1"
  result_unit: "%"
  endpoint_value: 0.279
- sample_smiles: "COc1ccc(CN(C)C[C@@H]2OCCCC[C@@H](C)Oc3ccc(NS(=O)(=O)c4ccc(C)cc4)cc3C(=O)N([C@@H](C)CO)C[C@H]2C)cc1"
  result_unit: "%"
  endpoint_value: 0.1
- sample_smiles: "Cc1noc(C)c1S(=O)(=O)Nc1ccc2c(c1)CC(=O)N([C@@H](C)CO)C[C@H](C)[C@H](CN(C)C(=O)Nc1cccc3ccccc13)O2"
  result_unit: "%"
  endpoint_value: 0.254
- sample_smiles: "C[C@H](CO)N1C[C@H](C)[C@H](CN(C)C(=O)Nc2ccccc2)Oc2c(NC(=O)Nc3ccc(C(F)(F)F)cc3)cccc2C1=O"
  result_unit: "%"
  endpoint_value: -0.159
- sample_smiles: "C[C@@H]1CN([C@H](C)CO)C(=O)c2cc(NC(=O)CCCN(C)C)ccc2O[C@H]1CN(C)S(=O)(=O)c1ccc(Cl)cc1"
  result_unit: "%"
  endpoint_value: -1.33
- sample_smiles: "C[C@@H]1CCCCO[C@@H](CN(C)Cc2ccc(C(F)(F)F)cc2)[C@H](C)CN([C@H](C)CO)C(=O)c2cc(NS(=O)(=O)c3ccc(F)cc3)ccc2O1"
  result_unit: "%"
  endpoint_value: -0.24
- sample_smiles: "C[C@H]1CN([C@@H](C)CO)C(=O)c2cccc(NC(=O)Nc3ccccc3)c2O[C@@H]1CN(C)C(=O)Nc1cccc2ccccc12"
  result_unit: "%"
  endpoint_value: -0.864

---

assay: A1 inhibitors via caspase activation, primary screen, cell-based, luminescence, HTS, two replicates (AID 2465); settings: MEF A1-2A-BIM cells, caspase-Glo luminescence, 3 h; hits give high values; percent of clofoctol response, DMSO zero; concentration not given here
Out of some 24,000 compounds screened, fewer than 10 were called active. Not all results are given here.

- sample_smiles: "Cc1noc(C)c1S(=O)(=O)Nc1ccc2c(c1)C(=O)N([C@H](C)CO)C[C@H](C)[C@H](CN(C)C(=O)NC1CCCCC1)OCCCC[C@H](C)O2"
  caspase activation: "-1.41% (inactive)"
- sample_smiles: "COc1ccc(S(=O)(=O)Nc2cccc3c2O[C@@H](CN(C)C(=O)NC(C)C)[C@H](C)CN([C@@H](C)CO)C3=O)cc1"
  caspase activation: "0.104% (inactive)"
- sample_smiles: "C[C@@H]1CN([C@@H](C)CO)C(=O)c2cc(NC(=O)Nc3ccccc3)ccc2O[C@H]1CN(C)S(=O)(=O)c1ccccc1"
  caspase activation: "-0.0866% (inactive)"
- sample_smiles: "C[C@@H]1CN([C@@H](C)CO)C(=O)c2cccc(NC(=O)CCCCCC(=O)Nc3ccccc3N)c2O[C@H]1CN(C)C(=O)Nc1ccccc1"
  caspase activation: "0.335% (inactive)"
- sample_smiles: "C[C@H]1CN([C@@H](C)CO)C(=O)Cc2cc(NC(=O)C3CCCCC3)ccc2O[C@H]1CN(C)C(=O)Nc1ccc(C(F)(F)F)cc1"
  caspase activation: "0.751% (inactive)"
- sample_smiles: "C[C@H]1CCCCO[C@@H](CN(C)Cc2ccc3c(c2)OCO3)[C@@H](C)CN([C@@H](C)CO)C(=O)c2cc(NC(=O)c3ccccc3)ccc2O1"
  caspase activation: "-0.254% (inactive)"
- sample_smiles: "Cc1noc(C)c1NC(=O)N(C)C[C@@H]1OCCCC[C@@H](C)Oc2ccc(NC(=O)C3CCCCC3)cc2C(=O)N([C@@H](C)CO)C[C@H]1C"
  caspase activation: "-0.914% (inactive)"
